system: SYO-1 tumor spheroids, viability % test/control; experiment: Anticancer human tumor SYO-1 cell line growth inhibition; conditions: curve of first compound; second compound 94.9 pM; spheroids with HUVEC and MSC;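 also: spheroids exposed to agents for 7 days before viability read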

COMPOUND	RELATION	IC50 / nM
Cc1cc(C)c(CNC(=O)c2cc(-c3ccc(CN4CCOCC4)cc3)cc3c2cnn3C2CCCC2)c(=O)[nH]1 + COc1cc2c(cc1O)CCNC21CSC2c3c(OC(C)=O)c(C)c4c(c3C(COC1=O)N1C(O)C3Cc5cc(C)c(OC)c(O)c5C(C21)N3C)OCO4	=	7980
CNCc1ccc(-c2cc(-c3nc(-c4ccc(S(=O)(=O)C(C)C)cc4)cnc3N)on2)cc1 + COc1cc2c(cc1O)CCNC21CSC2c3c(OC(C)=O)c(C)c4c(c3C(COC1=O)N1C(O)C3Cc5cc(C)c(OC)c(O)c5C(C21)N3C)OCO4	=	49.1
COc1cc(C)[nH]c(=O)c1CN1CCc2c(Cl)cc(C(OC)C3COC3)c(Cl)c2C1=O (stereo not given) + COc1cc2c(cc1O)CCNC21CSC2c3c(OC(C)=O)c(C)c4c(c3C(COC1=O)N1C(O)C3Cc5cc(C)c(OC)c(O)c5C(C21)N3C)OCO4	=	198
CC1COCCN1c1cc(-c2ccnn2C)c2ccnc(-c3ccn[nH]3)c2n1 (stereo not given) + COc1cc2c(cc1O)CCNC21CSC2c3c(OC(C)=O)c(C)c4c(c3C(COC1=O)N1C(O)C3Cc5cc(C)c(OC)c(O)c5C(C21)N3C)OCO4	<	31.6
O=C(c1cc(Cc2n[nH]c(=O)c3ccccc23)ccc1F)N1CCN(C(=O)C2CC2)CC1 + COc1cc2c(cc1O)CCNC21CSC2c3c(OC(C)=O)c(C)c4c(c3C(COC1=O)N1C(O)C3Cc5cc(C)c(OC)c(O)c5C(C21)N3C)OCO4	=	575
Cc1sc2c(c1C)C(c1ccc(Cl)cc1)=NC(CC(=O)Nc1ccc(O)cc1)c1nnc(C)n1-2 (stereo not given) + COc1cc2c(cc1O)CCNC21CSC2c3c(OC(C)=O)c(C)c4c(c3C(COC1=O)N1C(O)C3Cc5cc(C)c(OC)c(O)c5C(C21)N3C)OCO4	=	43.2
CC(C)n1c(=O)n(C)c2cnc3cc(F)c(-c4ccc(OCCCN5CCCCC5)nc4)cc3c21 + COc1cc2c(cc1O)CCNC21CSC2c3c(OC(C)=O)c(C)c4c(c3C(COC1=O)N1C(O)C3Cc5cc(C)c(OC)c(O)c5C(C21)N3C)OCO4	<	31.6
COc1ccc([C@@H](O)c2cc(-c3ncnc4cc(N5CCOCC5)ccc34)c(F)cc2Cl)nn1 + COc1cc2c(cc1O)CCNC21CSC2c3c(OC(C)=O)c(C)c4c(c3C(COC1=O)N1C(O)C3Cc5cc(C)c(OC)c(O)c5C(C21)N3C)OCO4	=	772
Cn1ncnc1[C@H]1c2n[nH]c(=O)c3cc(F)cc(c23)N[C@@H]1c1ccc(F)cc1 + COc1cc2c(cc1O)CCNC21CSC2c3c(OC(C)=O)c(C)c4c(c3C(COC1=O)N1C(O)C3Cc5cc(C)c(OC)c(O)c5C(C21)N3C)OCO4	<	9.49
[2H]c1nc(C)nc([2H])c1-c1cc(NC[C@@H](C)c2cccc3c(C(=O)NC)ccnc23)ncn1 + COc1cc2c(cc1O)CCNC21CSC2c3c(OC(C)=O)c(C)c4c(c3C(COC1=O)N1C(O)C3Cc5cc(C)c(OC)c(O)c5C(C21)N3C)OCO4	>	10000

====

Catalogue of pIC50 readings, one per entry.
tested on: SYO-1 tumor spheroids, viability % test/control; assay: Anticancer human tumor SYO-1 cell line growth inhibition; details: curve of first compound; second compound 100 µM; spheroids with HUVEC and MSC;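 also: spheroids exposed to agents for 7 days before viability read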
pIC50: −log10 of the molar value.

COMPOUND	TARGET_OR_SYSTEM	RELATION	pIC50
Cc1sc2c(c1C)C(c1ccc(Cl)cc1)=NC(CC(=O)Nc1ccc(O)cc1)c1nnc(C)n1-2 (stereo not drawn) + Cn1nnc2c(C(N)=O)ncn2c1=O	SYO-1 tumor spheroids, viability % test/control	=	7.58
COc1cc(C)[nH]c(=O)c1CN1CCc2c(Cl)cc(C(OC)C3COC3)c(Cl)c2C1=O (stereo not drawn) + Cn1nnc2c(C(N)=O)ncn2c1=O	SYO-1 tumor spheroids, viability % test/control	=	6.16
CC1COCCN1c1cc(-c2ccnn2C)c2ccnc(-c3ccn[nH]3)c2n1 (stereo not drawn) + Cn1nnc2c(C(N)=O)ncn2c1=O	SYO-1 tumor spheroids, viability % test/control	>	7.50

====

test system: SYO-1 tumor spheroids, viability % test/control; experiment: Anticancer human tumor SYO-1 cell line growth inhibition; conditions: second compound 94.9 pM; first compound 3.16 µM; spheroids with HUVEC and MSC; active = viability on the fitted dose curve at most 10% of control; inactive = the rest;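 also: spheroids exposed to agents for 7 days before viability read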
Outcomes: active, inactive

COMPOUND	LABEL
CC1COCCN1c1cc(-c2ccnn2C)c2ccnc(-c3ccn[nH]3)c2n1 (stereo unspecified) + COc1cc2c(cc1O)CCNC21CSC2c3c(OC(C)=O)c(C)c4c(c3C(COC1=O)N1C(O)C3Cc5cc(C)c(OC)c(O)c5C(C21)N3C)OCO4	active
COc1ccc([C@@H](O)c2cc(-c3ncnc4cc(N5CCOCC5)ccc34)c(F)cc2Cl)nn1 + COc1cc2c(cc1O)CCNC21CSC2c3c(OC(C)=O)c(C)c4c(c3C(COC1=O)N1C(O)C3Cc5cc(C)c(OC)c(O)c5C(C21)N3C)OCO4	active
Cc1cc(C)c(CNC(=O)c2cc(-c3ccc(CN4CCOCC4)cc3)cc3c2cnn3C2CCCC2)c(=O)[nH]1 + COc1cc2c(cc1O)CCNC21CSC2c3c(OC(C)=O)c(C)c4c(c3C(COC1=O)N1C(O)C3Cc5cc(C)c(OC)c(O)c5C(C21)N3C)OCO4	inactive
CC(C)n1c(=O)n(C)c2cnc3cc(F)c(-c4ccc(OCCCN5CCCCC5)nc4)cc3c21 + COc1cc2c(cc1O)CCNC21CSC2c3c(OC(C)=O)c(C)c4c(c3C(COC1=O)N1C(O)C3Cc5cc(C)c(OC)c(O)c5C(C21)N3C)OCO4	inactive
[2H]c1nc(C)nc([2H])c1-c1cc(NC[C@@H](C)c2cccc3c(C(=O)NC)ccnc23)ncn1 + COc1cc2c(cc1O)CCNC21CSC2c3c(OC(C)=O)c(C)c4c(c3C(COC1=O)N1C(O)C3Cc5cc(C)c(OC)c(O)c5C(C21)N3C)OCO4	inactive
COc1cc(C)[nH]c(=O)c1CN1CCc2c(Cl)cc(C(OC)C3COC3)c(Cl)c2C1=O (stereo unspecified) + COc1cc2c(cc1O)CCNC21CSC2c3c(OC(C)=O)c(C)c4c(c3C(COC1=O)N1C(O)C3Cc5cc(C)c(OC)c(O)c5C(C21)N3C)OCO4	inactive

====

test system: SYO-1 tumor spheroids, viability % test/control; experiment: Anticancer human tumor SYO-1 cell line growth inhibition; conditions: second compound 3.16 µM; first compound 0.316 µM; stronger effect = lower value; spheroids with HUVEC and MSC;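 also: spheroids exposed to agents for 7 days before viability read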;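 as to viability, T/C: 100% = DMSO vehicle control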

COMPOUND	MEASURE_UNIT	viability, T/C
[2H]c1nc(C)nc([2H])c1-c1cc(NC[C@@H](C)c2cccc3c(C(=O)NC)ccnc23)ncn1 + Cn1nnc2c(C(N)=O)ncn2c1=O	%	105
COc1ccc([C@@H](O)c2cc(-c3ncnc4cc(N5CCOCC5)ccc34)c(F)cc2Cl)nn1 + Cn1nnc2c(C(N)=O)ncn2c1=O	%	108
Cc1cc(C)c(CNC(=O)c2cc(-c3ccc(CN4CCOCC4)cc3)cc3c2cnn3C2CCCC2)c(=O)[nH]1 + Cn1nnc2c(C(N)=O)ncn2c1=O	%	103
COc1cc(C)[nH]c(=O)c1CN1CCc2c(Cl)cc(C(OC)C3COC3)c(Cl)c2C1=O (stereo unspecified) + Cn1nnc2c(C(N)=O)ncn2c1=O	%	99.5
CC(C)n1c(=O)n(C)c2cnc3cc(F)c(-c4ccc(OCCCN5CCCCC5)nc4)cc3c21 + Cn1nnc2c(C(N)=O)ncn2c1=O	%	106
CC1COCCN1c1cc(-c2ccnn2C)c2ccnc(-c3ccn[nH]3)c2n1 (stereo unspecified) + Cn1nnc2c(C(N)=O)ncn2c1=O	%	3.22

====

test system: SYO-1 tumor spheroids, viability % test/control; assay: Anticancer human tumor SYO-1 cell line growth inhibition; conditions: second compound 0.003 µM; first compound 0.949 µM; stronger effect = lower value; spheroids with HUVEC and MSC;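 also: spheroids exposed to agents for 7 days before viability read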;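 as to viability, T/C: 100% = DMSO vehicle control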
READOUT_KIND: viability, T/C (%)

MOLECULE	READOUT_KIND	MEASUREMENT
O=C(c1cc(Cc2n[nH]c(=O)c3ccccc23)ccc1F)N1CCN(C(=O)C2CC2)CC1 + COc1cc2c(cc1O)CCNC21CSC2c3c(OC(C)=O)c(C)c4c(c3C(COC1=O)N1C(O)C3Cc5cc(C)c(OC)c(O)c5C(C21)N3C)OCO4	viability, T/C	0.21
Cn1ncnc1[C@H]1c2n[nH]c(=O)c3cc(F)cc(c23)N[C@@H]1c1ccc(F)cc1 + COc1cc2c(cc1O)CCNC21CSC2c3c(OC(C)=O)c(C)c4c(c3C(COC1=O)N1C(O)C3Cc5cc(C)c(OC)c(O)c5C(C21)N3C)OCO4	viability, T/C	0.52
Cn1ncnc1[C@H]1c2n[nH]c(=O)c3cc(F)cc(c23)N[C@@H]1c1ccc(F)cc1 + CC[C@@]1(O)C(=O)OCc2c1cc1n(c2=O)Cc2cc3c(CN(C)C)c(O)ccc3nc2-1	viability, T/C	1.45
CNCc1ccc(-c2cc(-c3nc(-c4ccc(S(=O)(=O)C(C)C)cc4)cnc3N)on2)cc1 + COc1cc2c(cc1O)CCNC21CSC2c3c(OC(C)=O)c(C)c4c(c3C(COC1=O)N1C(O)C3Cc5cc(C)c(OC)c(O)c5C(C21)N3C)OCO4	viability, T/C	0.19
Cc1sc2c(c1C)C(c1ccc(Cl)cc1)=NC(CC(=O)Nc1ccc(O)cc1)c1nnc(C)n1-2 (stereo not drawn) + COc1cc2c(cc1O)CCNC21CSC2c3c(OC(C)=O)c(C)c4c(c3C(COC1=O)N1C(O)C3Cc5cc(C)c(OC)c(O)c5C(C21)N3C)OCO4	viability, T/C	0.09
Cc1sc2c(c1C)C(c1ccc(Cl)cc1)=NC(CC(=O)Nc1ccc(O)cc1)c1nnc(C)n1-2 (stereo not drawn) + CC[C@@]1(O)C(=O)OCc2c1cc1n(c2=O)Cc2cc3c(CN(C)C)c(O)ccc3nc2-1	viability, T/C	0.77
O=C(c1cc(Cc2n[nH]c(=O)c3ccccc23)ccc1F)N1CCN(C(=O)C2CC2)CC1 + CC[C@@]1(O)C(=O)OCc2c1cc1n(c2=O)Cc2cc3c(CN(C)C)c(O)ccc3nc2-1	viability, T/C	8.02
CNCc1ccc(-c2cc(-c3nc(-c4ccc(S(=O)(=O)C(C)C)cc4)cnc3N)on2)cc1 + CC[C@@]1(O)C(=O)OCc2c1cc1n(c2=O)Cc2cc3c(CN(C)C)c(O)ccc3nc2-1	viability, T/C	0.36

These entries and their values trace back to PubChem BioAssay AID1845219.
